Reference for the values: PubChem BioAssay

Give measured composite z-score for each item. Keep answers brief.
- Test system: Sam68 (KHDRBS1)
- Protocol Summary: compounds binding KHDRBS1 protein – biochemical, small-molecule microarray, 635 nm fluorescence, primary screen (AID 1125);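 also: score merges 667 nm channel intensity with signal to noise over triplicate slides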
- Protocol Conditions: higher = more signal

Qu. Return reported composite z-score. Input molecule: C=CCOC(=O)[C@@]1(Cc2ccccc2)C[C@H]2CO[C@H](c3ccc(OC)cc3)N2C1=O
Ans. 0.168

Qu. Return reported composite z-score. Input molecule: N#Cc1ccc(NN2C(C(O)c3ccc(Br)cc3)C=CC3C(=O)N(c4ccccc4)C(=O)C32)cc1 (centres undefined)
Ans. 0.83

Qu. Return reported composite z-score. Input molecule: COc1ccc([Si](C)(C)[C@@H]2[C@@H](CCO)O[C@]3(C(=O)N(Cc4ccccc4)c4ccc(N5C(=O)c6cccc7cccc5c67)cc43)[C@H]2C)cc1
Ans. -0.239

Qu. Return reported composite z-score. Input molecule: CCCC=C(CCC)[C@@H](NC(=O)c1cccs1)c1ccc(C(=O)OC)cc1
Ans. -0.411

----------
- Protocol Summary: probe aShh binding to arrayed compounds – biochemical, biotinylated probe, 635/667 nm fluorescence, primary screen (AID 1114);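 also: probe is biotin-labelled aShh protein from a stem cell growth factor screen; measures binding of labelled protein to compounds printed on the slide; score merges feature fluorescence at 667 nm with signal-to-noise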
- Protocol Conditions: small-molecule microarray, higher = more signal
Attribute Measured: composite z-score

Qu. Return reported composite z-score. Input compound: CCN(CC)c1ccc(N2CC=CC34O[C@@H]5/C=C\CCCOC(=O)C5[C@H]3C(=O)N(C(C)CO)[C@@H]4C2=O)cc1 (stereo partly drawn)
Ans. 0.297

Qu. Return reported composite z-score. Input compound: COCCOC(=O)N1C(=O)[C@@]2(c3ccccc31)[C@H](c1ccc(O)cc1)N1[C@H](c3ccccc3)[C@H](c3ccccc3)OC(=O)[C@H]1[C@@H]2C(=O)N1CCN(c2ncccn2)CC1
Ans. 0.0469

Qu. Return reported composite z-score. Input compound: C=CCOC(=O)[C@@H]1[C@H]2C(=O)O[C@H](c3ccccc3)[C@H](c3ccccc3)N2[C@H](c2ccc(OCCOC(=O)[C@@H]3C[C@@H]4C(=O)N[C@@H](CCCC[N+](C)(C)C)C(=O)N4[C@@H]3c3ccc(O)cc3)cc2)[C@@]12C(=O)Nc1ccc(I)cc12
Ans. 0.614

----------
- Assayed System: NADPH oxidase 5 (Homo sapiens) (UniProt Q96PH1)
- Sequence (Q96PH1 whole entry, looked up): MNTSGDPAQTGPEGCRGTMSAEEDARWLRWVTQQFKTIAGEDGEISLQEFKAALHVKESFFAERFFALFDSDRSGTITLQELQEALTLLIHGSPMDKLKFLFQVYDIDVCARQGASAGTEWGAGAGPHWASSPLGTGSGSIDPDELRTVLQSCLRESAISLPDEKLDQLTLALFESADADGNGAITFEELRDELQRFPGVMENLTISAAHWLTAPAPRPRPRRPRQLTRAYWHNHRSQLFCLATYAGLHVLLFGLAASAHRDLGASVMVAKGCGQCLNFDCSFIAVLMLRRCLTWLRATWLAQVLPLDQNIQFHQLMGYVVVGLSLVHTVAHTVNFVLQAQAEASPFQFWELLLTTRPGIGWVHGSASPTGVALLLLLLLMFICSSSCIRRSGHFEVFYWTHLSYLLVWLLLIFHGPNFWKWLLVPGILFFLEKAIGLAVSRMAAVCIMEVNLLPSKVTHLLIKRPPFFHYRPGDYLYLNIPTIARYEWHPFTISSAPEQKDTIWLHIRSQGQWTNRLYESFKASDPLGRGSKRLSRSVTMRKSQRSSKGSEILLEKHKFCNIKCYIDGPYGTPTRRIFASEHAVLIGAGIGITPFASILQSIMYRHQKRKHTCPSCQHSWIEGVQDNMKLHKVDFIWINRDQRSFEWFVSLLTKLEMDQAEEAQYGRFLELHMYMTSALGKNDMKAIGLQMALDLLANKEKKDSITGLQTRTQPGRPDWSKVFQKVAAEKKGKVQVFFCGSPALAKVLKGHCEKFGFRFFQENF
- Protocol Summary: compounds shifting NOX5 Amplex Red fluorescence – cell-based, HEK293-NOX5, NOX inhibitor project, primary screen (AID 1161)
- Protocol Conditions: HEK293-NOX5, ionomycin, 45 min, higher = more signal
Attribute Measured: z-score
Please give the numeric answer without any surrounding text.

Qu. Report the value of z-score obtained on NADPH oxidase 5 (Homo sapiens) (UniProt Q96PH1) for CC#CCO[Si](C#Cc1ccccc1)(C(C)C)C(C)C .
Ans. -0.624

Qu. Report the value of z-score obtained on NADPH oxidase 5 (Homo sapiens) (UniProt Q96PH1) for Cc1ccc(NN2C(C(O)c3c(F)cccc3Cl)C=CC3C(=O)N(C4CCCCC4)C(=O)C32)cc1 (stereo not given) .
Ans. -1.67

Qu. Report the value of z-score obtained on NADPH oxidase 5 (Homo sapiens) (UniProt Q96PH1) for CCCCNC(=O)c1ccc(C#CC(C)(C)C)c(OC(C)=O)c1 .
Ans. 0.416

Qu. Report the value of z-score obtained on NADPH oxidase 5 (Homo sapiens) (UniProt Q96PH1) for CCCCC=C[C@@H](NC(=O)OCc1ccccc1Cl)c1ccccc1 .
Ans. 1.24

Qu. Report the value of z-score obtained on NADPH oxidase 5 (Homo sapiens) (UniProt Q96PH1) for CCOC(=O)C=Cc1cccc(C)c1O .
Ans. -4.98

Qu. Report the value of z-score obtained on NADPH oxidase 5 (Homo sapiens) (UniProt Q96PH1) for CCN(CC)c1ccc(N2CC=CC34O[C@@H]5/C=C\CCCOC(=O)C5[C@H]3C(=O)N(C(C)CO)[C@@H]4C2=O)cc1 (stereo not given in full) .
Ans. 0.83

Qu. Report the value of z-score obtained on NADPH oxidase 5 (Homo sapiens) (UniProt Q96PH1) for C=CC[C@]1(C(=O)N2CCCCC2)N=C(c2ccc(OCCCO)cc2)O[C@H]1c1ccccc1CN=[N+]=[N-] .
Ans. -1.46

Qu. Report the value of z-score obtained on NADPH oxidase 5 (Homo sapiens) (UniProt Q96PH1) for CCCC=C(CCC)[C@@H](NP(=O)(c1ccccc1)c1ccccc1)c1ccc(-c2ccccc2)cc1 .
Ans. 2.3

Qu. Report the value of z-score obtained on NADPH oxidase 5 (Homo sapiens) (UniProt Q96PH1) for COc1ccc([Si](C)(C)[C@@H]2[C@@H](CCO)O[C@]3(C(=O)N(Cc4cccc(NC(=O)[C@H](C)O)c4)c4ccccc43)[C@H]2C)cc1 .
Ans. -0.256

Qu. Report the value of z-score obtained on NADPH oxidase 5 (Homo sapiens) (UniProt Q96PH1) for COCCOC(=O)N1C(=O)[C@@]2(c3cc(C#CC4=CCCCC4)ccc31)[C@H](c1ccccc1OCCO)N1[C@H](c3ccccc3)[C@H](c3ccccc3)OC(=O)[C@H]1[C@@H]2C(=O)NC[C@H](O)c1ccccc1 .
Ans. 1.81

Qu. Report the value of z-score obtained on NADPH oxidase 5 (Homo sapiens) (UniProt Q96PH1) for COc1ccccc1CN1C(=O)c2ccccc2[C@](Cc2ccccc2I)(C(=O)O)[C@@H]1c1ccc(CO)cc1 .
Ans. 0.646

Qu. Report the value of z-score obtained on NADPH oxidase 5 (Homo sapiens) (UniProt Q96PH1) for CCOC(=O)C[C@H]1[C@H](OC(=O)Cc2ccc3c(c2)OCO3)[C@@H](NC(=O)c2ccc3ccccc3n2)c2cc(OCCCO)ccc2N1C(=O)c1ccc2ccccc2n1 .
Ans. -2.65

Qu. Report the value of z-score obtained on NADPH oxidase 5 (Homo sapiens) (UniProt Q96PH1) for C[N+](C)(C)CCCC[C@@H]1NC(=O)[C@@H]2C[C@H](C(=O)NCCCCCCN)[C@H](c3cccc(OCCO)c3)N2C1=O .
Ans. 0.559

Qu. Report the value of z-score obtained on NADPH oxidase 5 (Homo sapiens) (UniProt Q96PH1) for CCCCC(CC)C(O)C1C=CC2C(=O)N(C)C(=O)C2N1Nc1ccccc1 (stereo not given) .
Ans. -3.2

Qu. Report the value of z-score obtained on NADPH oxidase 5 (Homo sapiens) (UniProt Q96PH1) for CC(C)[Si](C#C[Si](C(C)C)(C(C)C)C(C)C)(O[C@H](c1ccccc1)c1cn(Cc2ccccc2)nn1)C(C)C .
Ans. -0.932

Qu. Report the value of z-score obtained on NADPH oxidase 5 (Homo sapiens) (UniProt Q96PH1) for CC1CC/C=C\[C@H]2OC34C=CCN(c5ccc6ccccc6c5)C(=O)[C@H]3N(CCCO)C(=O)[C@@H]4C2C(=O)O1 (stereo not given in full) .
Ans. 2.84

Qu. Report the value of z-score obtained on NADPH oxidase 5 (Homo sapiens) (UniProt Q96PH1) for COc1ccc([Si](C)(C)[C@H]2[C@H](CC(=O)N3Cc4ccccc4C[C@H]3CO)O[C@@]3(C(=O)N(Cc4ccc(N5CCOC5=O)cc4)c4ccccc43)[C@@H]2C)cc1 .
Ans. -0.344

Qu. Report the value of z-score obtained on NADPH oxidase 5 (Homo sapiens) (UniProt Q96PH1) for O[C@@H](Cc1ccccc1)[C@@H](/C=C/C1CC1)N(CC#Cc1ccccc1)Cc1ccccc1Br .
Ans. -0.586

Qu. Report the value of z-score obtained on NADPH oxidase 5 (Homo sapiens) (UniProt Q96PH1) for COC(=O)[C@@]1(Cc2ccc(F)cc2)[C@H]2c3cc(C(=O)N4CCCC4)n(Cc4ccc(C)c(F)c4F)c3C[C@H]2CN1C(=O)c1ccccc1 .
Ans. -7.01

Qu. Report the value of z-score obtained on NADPH oxidase 5 (Homo sapiens) (UniProt Q96PH1) for CC1CC/C=C\[C@H]2OC34C=CCN(C(C)(C)C)C(=O)[C@H]3N(CCCCCO)C(=O)[C@@H]4C2C(=O)O1 (stereo not given in full) .
Ans. 1.3

Qu. Report the value of z-score obtained on NADPH oxidase 5 (Homo sapiens) (UniProt Q96PH1) for CCCNC(=O)[C@@]1(Sc2ccc(C)cc2)CC(=O)N(C2Cc3ccccc3C2)[C@@H]1c1ccc(CO)cc1I .
Ans. 0.67

Qu. Report the value of z-score obtained on NADPH oxidase 5 (Homo sapiens) (UniProt Q96PH1) for NC(=O)NCC#Cc1ccc2c(c1)[C@]1(C(=O)N2)[C@H](c2ccccc2OCCO)N2[C@H](c3ccccc3)[C@H](c3ccccc3)OC(=O)[C@H]2[C@@H]1C(=O)O .
Ans. -0.123

Qu. Report the value of z-score obtained on NADPH oxidase 5 (Homo sapiens) (UniProt Q96PH1) for COC(=O)c1c(CC[C@@H](CO)NC(=O)N2CCC[C@H]2Cn2cc(C3(O)CCCCC3)nn2)oc(C(C)=O)c1C(=O)OC .
Ans. -1.37

Qu. Report the value of z-score obtained on NADPH oxidase 5 (Homo sapiens) (UniProt Q96PH1) for CC(=O)NCCCC[C@@H]1NC(=O)[C@@H]2C[C@H](C(=O)NCCCCCN)[C@H](c3ccc(O)cc3)N2C1=O .
Ans. 2.86

Qu. Report the value of z-score obtained on NADPH oxidase 5 (Homo sapiens) (UniProt Q96PH1) for CCCC1(C(=O)OC)C=C2C(=C(C)C(=O)C2C)CN1 (stereo not given) .
Ans. -2.88

Qu. Report the value of z-score obtained on NADPH oxidase 5 (Homo sapiens) (UniProt Q96PH1) for O=C1OCCC=C[C@H]2OC34C=CCN(Cn5nnc6ccccc65)C(=O)[C@H]3N(CCCO)C(=O)[C@@H]4C12 (stereo not given in full) .
Ans. -1.35

Qu. Report the value of z-score obtained on NADPH oxidase 5 (Homo sapiens) (UniProt Q96PH1) for O=C1O[C@@H](c2ccccc2)[C@@H](c2ccccc2)N2[C@@H](c3ccc(OCCO)cc3)[C@]3(C(=O)Nc4ccc(C#CC5=CCCCC5)cc43)[C@@H](C(=O)NC[C@H](O)c3ccccc3)[C@H]12 .
Ans. 0.469

Qu. Report the value of z-score obtained on NADPH oxidase 5 (Homo sapiens) (UniProt Q96PH1) for COCCOC(=O)N1C(=O)[C@@]2(c3ccccc31)[C@H](c1ccc(O)cc1)N1[C@H](c3ccccc3)[C@H](c3ccccc3)OC(=O)[C@H]1[C@@H]2C(=O)N1CCN(c2ncccn2)CC1 .
Ans. 1.08

Qu. Report the value of z-score obtained on NADPH oxidase 5 (Homo sapiens) (UniProt Q96PH1) for [N-]=[N+]=NCc1ccccc1[C@@H]1OC(c2ccc(OCCCO)cc2)=N[C@]1(CCS(=O)(=O)c1ccccc1)C(=O)O .
Ans. 2.11

Qu. Report the value of z-score obtained on NADPH oxidase 5 (Homo sapiens) (UniProt Q96PH1) for COC(=O)C/C=C/C[C@]1(O)C(=O)N(C)c2ccccc21 .
Ans. 0.882
